Some substances, each annotated with its measured control PPR (paired pulse ratio before LTP induction).
System: mossy fiber synapses of hippocampal CA3 pyramidal neurons
Assay Overview: Mossy fiber LTP, whole-cell patch clamp in hippocampal slices
Format: cell-based, mice
Condition Parameters: peptide 50 μM in patch electrode; 40 ms interval
Square brackets hold non-standard residues; d marks the D form. Ends that are not written are not given here. pS = N[C@@H](COP(=O)(O)O)C(=O)O
Measure Name: control PPR (paired pulse ratio before LTP induction)

Substance	Assay System	Measurement
NVYGIESVKI [GluR2ct, Asn-Val-Tyr-Gly-Ile-Glu-Ser-Val-Lys-Ile]	mossy fiber synapses of hippocampal CA3 pyramidal neurons	2.8
R2ctPO4: phosphorylated GluR2/3 peptide; same as SEQ ID NO: 1 except the serine is phosphorylated (NVYGIE[pS]VKI) [reference compound]	mossy fiber synapses of hippocampal CA3 pyramidal neurons	3.0
LHLHGTGIQV [EphA7 peptide, reference compound]	mossy fiber synapses of hippocampal CA3 pyramidal neurons	2.8
QMNQIQSVEV [EphB2 peptide, Gln-Met-Asn-Gln-Ile-Gln-Ser-Val-Glu-Val]	mossy fiber synapses of hippocampal CA3 pyramidal neurons	2.5
NVIYVKSEIG [R2ctSC, reference compound]	mossy fiber synapses of hippocampal CA3 pyramidal neurons	3.1

* * *

Assay System: GRIP PDZ 6 domain (Rattus norvegicus)
Construct: a GRIP fragment containing only the PDZ 6 domain; made in house; host or cells: E. coli BL21 (inferred from the PDZ4-6 construct)
Sequence (P97879 672-754 limits assumed): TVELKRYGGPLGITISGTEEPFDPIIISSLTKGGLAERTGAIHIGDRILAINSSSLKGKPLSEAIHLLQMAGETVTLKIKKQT
Assay Overview: Competitive binding of 35S-EphB2 to His-GRIP-PDZ6
Condition Parameters: read-out: Ki, displacement of 35S-EphB2 binding to His-GRIP-PDZ6
pKi: −log10 of the molar value. Ends that are not written are not given here.
Measure Name: pKi

Seq	Measure Name	Measurement
NVYGIESVKI [GluR2ct, Asn-Val-Tyr-Gly-Ile-Glu-Ser-Val-Lys-Ile]	pKi	6.81
